meta.source: paper PMC2871064

TEST PROTOCOL: Pharmacokinetics and gamma camera imaging in cynomolgus monkeys
Assay type: in vivo
RUN PARAMETERS: both, cynomolgus monkey, blood, iv, 185 MBq
MEASURED PARAMETER: clearance (mL/min)
Number in mL/min, nothing else.

So what's the measured clearance for this one? CCN(CC)CCNC(=O)c1cc(I)c(NC(=O)c2ccc(F)cc2)cc1OC [[^131I]MIP-1145]
6.67

---

TEST PROTOCOL: Pharmacokinetics and gamma camera imaging in cynomolgus monkeys
Assay type: in vivo
RUN PARAMETERS: both, cynomolgus monkey, blood, iv, 185 MBq
MEASURED PARAMETER: MRT
Could you give the number and then its unit, please?

Could you tell me which MRT is on file for CCN(CC)CCNC(=O)c1cc(I)c(NC(=O)c2ccc(F)cc2)cc1OC [[^131I]MIP-1145] ?
47 h
